Target entity: human liver microsomal cytochrome P450 2E1 (CYP2E1) (Homo sapiens)
Sequence (P05181 whole entry): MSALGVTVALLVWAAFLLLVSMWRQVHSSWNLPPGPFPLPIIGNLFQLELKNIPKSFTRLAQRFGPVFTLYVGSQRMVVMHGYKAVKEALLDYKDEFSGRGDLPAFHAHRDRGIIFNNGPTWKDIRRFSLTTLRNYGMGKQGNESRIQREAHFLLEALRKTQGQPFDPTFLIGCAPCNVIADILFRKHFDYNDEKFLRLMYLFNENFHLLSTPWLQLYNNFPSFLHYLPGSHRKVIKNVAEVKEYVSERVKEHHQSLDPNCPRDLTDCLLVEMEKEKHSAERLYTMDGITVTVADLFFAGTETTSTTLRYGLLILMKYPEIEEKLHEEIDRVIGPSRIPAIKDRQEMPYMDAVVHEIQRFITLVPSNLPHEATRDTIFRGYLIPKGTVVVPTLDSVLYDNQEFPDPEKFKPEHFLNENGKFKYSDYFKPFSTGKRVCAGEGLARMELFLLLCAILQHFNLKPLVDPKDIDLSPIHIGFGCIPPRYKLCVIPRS
Assay info: Chlorzoxazone hydroxylation inhibition (6-OH-CZX by LC/MS/MS)
Conditions used: tested concentration 16.5 μM
Observable: Inhibition of CYP 2E1 (%)
Return type: number; implicit unit %.

Consider the reported Inhibition of CYP 2E1 (%) for these molecules:
[[record]]
molecule = "COc1ccc([C@@H]2CC(=O)c3c(O)cc(O[C@@H]4O[C@H](CO[C@@H]5O[C@@H](C)[C@H](O)[C@@H](O)[C@H]5O)[C@@H](O)[C@H](O)[C@H]4O)cc3O2)cc1O [Hesperidin]"
observable = "Inhibition of CYP 2E1 (%)"
result_value = 45.32

[[record]]
molecule = "Oc1cc(O)c2c(c1)O[C@@H](c1ccc(O)c(O)c1)[C@@H](O)C2 [(+)-Epicatechin]"
observable = "Inhibition of CYP 2E1 (%)"
result_value = 66.71

[[record]]
molecule = "O=C(O[C@@H]1Cc2c(O)cc(O)cc2O[C@@H]1c1cc(O)c(O)c(O)c1)c1cc(O)c(O)c(O)c1 [(−)-Epigallocetechin-3-gallate]"
observable = "Inhibition of CYP 2E1 (%)"
result_value = 50.19

[[record]]
molecule = "C=C(C)C1CC=C(C)CC1 (single isomer, unassigned; (+)) [(+)-Limonene]"
observable = "Inhibition of CYP 2E1 (%)"
result_value = 13.77

[[record]]
molecule = "COc1ccc([C@@H]2CC(=O)c3c(O)cc(O[C@@H]4O[C@H](CO)[C@@H](O)[C@H](O)[C@H]4O[C@@H]4O[C@@H](C)[C@H](O)[C@@H](O)[C@H]4O)cc3O2)cc1O [Neohesperidin]"
observable = "Inhibition of CYP 2E1 (%)"
result_value = 42.81

[[record]]
molecule = "O=c1cc(-c2ccc(O)c(O)c2)oc2cc(O[C@@H]3O[C@H](CO)[C@@H](O)[C@H](O)[C@H]3O)cc(O)c12 [Luteolin-7-Glucoside]"
observable = "Inhibition of CYP 2E1 (%)"
result_value = 42.96

[[record]]
molecule = "COc1c(O)cc2oc(Oc3ccc(O)cc3)cc(=O)c2c1O [Capillarisin]"
observable = "Inhibition of CYP 2E1 (%)"
result_value = 32.89


Let us move to another entry and its Inhibition of CYP 2E1 (%).
INPUT: In one line, give reported Inhibition of CYP 2E1 (%) of the entry Oc1cc(O)c2c(c1)O[C@H](c1cc(O)c(O)c(O)c1)[C@H](O)C2 [(−)-Epigallocatechin] .
OUTPUT: 38.95
